procedure summary: Selectivity index, ratio of IC50 for human WI-38 cells to IC50 for human HCT116 cells after 48 hrs by MTT assay
Type: toxicity
run parameters: WI-38 cells versus HCT116 cells, read-out: Ratio IC50
property measured: selectivity ratio at 48 h

IN: // fetch selectivity ratio at 48 h given entry `COc1ccc(-n2c(=S)sc3c(Cl)nc(C)nc32)c(OC)c1`
OUT: 4

###

The entries below are paired with their reported pIC50.
Tested on: HCT-116
procedure summary: Cytotoxicity against human HCT-116 cells assessed as reduction in cell viability after 48 hrs by MTT assay
Format: functional, cell-based
run parameters: HCT-116, 48 h
pIC50 (log units): -log10 of the concentration in mol/L.

| entry smiles | property measured | endpoint value |
| --- | --- | --- |
| COc1ccc(-n2c(=S)sc3c(Cl)nc(C)nc32)c(OC)c1 | pIC50 | 5.27 |

From here, focus on the item given below.
IN: Answer with reported pIC50 of `CC[C@H](CO)Nc1nc(NCc2ccccc2)c2ncn(C(C)C)c2n1`
OUT: 4.81

Where do the numbers come from? From ChEMBL document CHEMBL4725331.
